Origin of the recorded values: patent US4532255A

Study System: Thrombin (Homo sapiens, UniProt P00734)
Measure Name: IC50 (µM)

>>> measured_value("N=C(N)c1ccc2cc(OC(=O)c3ccc(O)cc3)ccc2c1 [Compound 11, 6-amidino-2-naphthyl 4-hydroxybenzoate]")
7
>>> measured_value("COc1ccccc1OCC(=O)Oc1ccc2cc(C(=N)N)ccc2c1")
10
>>> measured_value("N=C(N)c1ccc2cc(OC(=O)c3ccc(F)cc3)ccc2c1")
2

====

// reported Inhibition of complement mediated hemolysis (%) for each item listed
System: complement mediated hemolysis
Test Description: Inhibition of complement mediated hemolysis
Format: cell-based
Settings: 1 × 10^-4
Measure Name: Inhibition of complement mediated hemolysis (%)

>>> measured_value("CN(C(=N)N)c1ccc(C(=O)Oc2ccc3cc(C(=N)N)ccc3c2)cc1")
100
>>> measured_value("CCCCOc1ccc(C(=O)Oc2ccc3cc(C(=N)N)ccc3c2)cc1")
46
>>> measured_value("N=C(N)Nc1ccc(C(=O)Oc2ccc3cc(C(=N)N)ccc3c2)cc1 [Compound 27, 6-amidino-2-naphthyl 4-guanidinobenzoate]")
100
>>> measured_value("N=C(N)Nc1ccc(CCC(=O)Oc2ccc3cc(C(=N)N)ccc3c2)cc1")
48
>>> measured_value("N=C(N)c1ccc2cc(OC(=O)c3ccc(CNC(=O)OCc4ccccc4)cc3)ccc2c1")
0

====

A set of compounds tested on Thrombin (Homo sapiens, UniProt P00734), with measured IC50:
Measure Name: IC50 (µM)

>>> measured_value("COC(=O)c1ccc(C(=O)Oc2ccc3cc(C(=N)N)ccc3c2)cc1")
3
>>> measured_value("N=C(N)c1ccc2cc(OC(=O)c3ccc4c(c3)OCO4)ccc2c1")
4
>>> measured_value("CC(C)(C)c1ccc(C(=O)Oc2ccc3cc(C(=N)N)ccc3c2)cc1")
3
>>> measured_value("CC(=O)Nc1ccc(C(=O)Oc2ccc3cc(C(=N)N)ccc3c2)cc1")
60

====

Study System: C1r (Homo sapiens)
Sequence (P00736 464-705 limits assumed): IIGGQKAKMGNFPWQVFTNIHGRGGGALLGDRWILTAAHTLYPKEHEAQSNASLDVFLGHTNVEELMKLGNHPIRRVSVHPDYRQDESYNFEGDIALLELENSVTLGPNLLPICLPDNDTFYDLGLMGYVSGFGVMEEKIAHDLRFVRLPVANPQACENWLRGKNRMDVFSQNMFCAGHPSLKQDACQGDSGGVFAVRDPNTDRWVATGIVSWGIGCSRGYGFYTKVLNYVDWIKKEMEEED
Sequence (P00736 18-463 partner limits assumed): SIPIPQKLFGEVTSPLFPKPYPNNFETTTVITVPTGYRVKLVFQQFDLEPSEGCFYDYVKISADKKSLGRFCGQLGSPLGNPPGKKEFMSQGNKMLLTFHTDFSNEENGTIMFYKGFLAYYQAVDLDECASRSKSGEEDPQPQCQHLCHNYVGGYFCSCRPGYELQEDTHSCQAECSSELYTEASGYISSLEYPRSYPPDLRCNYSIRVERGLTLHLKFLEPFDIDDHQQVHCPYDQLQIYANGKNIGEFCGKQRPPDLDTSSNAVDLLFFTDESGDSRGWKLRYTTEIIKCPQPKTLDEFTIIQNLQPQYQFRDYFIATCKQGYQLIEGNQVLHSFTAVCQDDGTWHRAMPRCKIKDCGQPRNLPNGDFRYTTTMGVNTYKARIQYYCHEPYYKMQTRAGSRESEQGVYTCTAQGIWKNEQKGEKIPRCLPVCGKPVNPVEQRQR
Test Description: Anti-C1 esterase (C1r) activity (hydrolysis of AAME)
Format: biochemical
Settings: at 1×10^-5 M; read-out: Anti-C1 activity, C1r percent inhibition
Measure Name: inhibition at 10 µM (%)

>>> measured_value("N=C(N)Nc1ccc(C=CC(=O)Oc2ccc3cc(C(=N)N)ccc3c2)cc1")
14
>>> measured_value("N=C(N)c1ccc2cc(OC(=O)c3ccc(Cl)cc3)ccc2c1")
39
>>> measured_value("N=C(N)c1ccc2cc(OC(=O)CCc3ccc(N)cc3)ccc2c1")
18
>>> measured_value("N=C(N)c1ccc2cc(OC(=O)C=Cc3ccc(N)cc3)ccc2c1 [Compound 63, 6-amidino-2-naphthyl 4-aminocinnamate]")
15

====

Study System: UniProt:P09871
Test Description: biochemical
Measure Name: IC50 (nM)

>>> measured_value("N=C(N)c1ccc2cc(OC(=O)c3ccc(F)cc3)ccc2c1")
300

====

Study System: Plasmin (Homo sapiens)
Sequence (P00747 581-810 limits assumed, species assumed): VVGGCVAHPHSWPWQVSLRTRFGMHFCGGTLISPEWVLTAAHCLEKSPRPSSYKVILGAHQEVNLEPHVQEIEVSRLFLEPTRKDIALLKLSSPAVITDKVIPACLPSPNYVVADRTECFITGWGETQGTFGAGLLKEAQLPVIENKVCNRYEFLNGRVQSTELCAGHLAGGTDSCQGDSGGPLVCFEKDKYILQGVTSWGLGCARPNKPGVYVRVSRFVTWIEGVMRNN
Sequence (P00747 97-580 partner limits assumed, species assumed): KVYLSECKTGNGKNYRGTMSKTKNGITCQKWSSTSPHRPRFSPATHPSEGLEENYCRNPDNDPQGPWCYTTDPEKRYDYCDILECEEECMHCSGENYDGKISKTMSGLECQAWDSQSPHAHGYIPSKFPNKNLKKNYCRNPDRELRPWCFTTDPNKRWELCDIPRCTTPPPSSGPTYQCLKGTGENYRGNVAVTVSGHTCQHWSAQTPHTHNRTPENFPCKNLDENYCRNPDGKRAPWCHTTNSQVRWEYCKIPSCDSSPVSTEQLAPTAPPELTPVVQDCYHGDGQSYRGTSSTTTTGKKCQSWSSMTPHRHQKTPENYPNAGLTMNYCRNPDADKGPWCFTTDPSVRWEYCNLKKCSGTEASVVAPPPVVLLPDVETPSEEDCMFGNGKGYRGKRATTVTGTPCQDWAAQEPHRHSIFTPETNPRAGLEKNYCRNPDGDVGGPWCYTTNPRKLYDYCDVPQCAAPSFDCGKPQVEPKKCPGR
Test Description: Anti-plasmin activity (hydrolysis of TAME)
Format: biochemical
Settings: molar concentration inhibiting 50% of TAME hydrolysis; read-out: Plasmin ID50
Protocol: The anti-trypsin, anti-plasmin, anti-kallikrein and anti-thrombin activities were determined according to the method of Muramatsu et al. [M. Muramatsu, T. Onishi, S. Makino, Y. Hayashi and S. Fujii, J. of Biochem., 58, 214 (1965)]. […] The compound No. corresponds to the compound number shown in Examples.
Measure Name: IC50 (nM)

>>> measured_value("N=C(N)c1ccc2cc(O)ccc2c1 [6-amidino-2-naphthol, reference compound]")
440000
>>> measured_value("CN(C(=N)N)c1ccc(C(=O)Oc2ccc3cc(C(=N)N)ccc3c2)cc1")
600
>>> measured_value("CC(C)(C)c1ccc(C(=O)Oc2ccc3cc(C(=N)N)ccc3c2)cc1")
2000
>>> measured_value("CN(C)c1ccc(C(=O)Oc2ccc3cc(C(=N)N)ccc3c2)cc1")
20000
>>> measured_value("N=C(N)c1ccc2cc(OC(=O)C=Cc3ccccc3)ccc2c1 [Compound 57, 6-amidino-2-naphthyl cinnamate]")
3000
>>> measured_value("Cc1ccc(C(=O)Oc2ccc3cc(C(=N)N)ccc3c2)cc1")
500
>>> measured_value("CC(=O)Oc1ccc(C(=O)Oc2ccc3cc(C(=N)N)ccc3c2)cc1")
2000
>>> measured_value("N=C(N)c1ccc2cc(OC(=O)c3ccc(Cl)cc3)ccc2c1")
500
>>> measured_value("N=C(N)c1ccc2cc(OC(=O)c3ccc4c(c3)OCO4)ccc2c1")
50000

====

Study System: C1s (Homo sapiens, UniProt P09871)
Sequence (P09871 438-688 limits assumed): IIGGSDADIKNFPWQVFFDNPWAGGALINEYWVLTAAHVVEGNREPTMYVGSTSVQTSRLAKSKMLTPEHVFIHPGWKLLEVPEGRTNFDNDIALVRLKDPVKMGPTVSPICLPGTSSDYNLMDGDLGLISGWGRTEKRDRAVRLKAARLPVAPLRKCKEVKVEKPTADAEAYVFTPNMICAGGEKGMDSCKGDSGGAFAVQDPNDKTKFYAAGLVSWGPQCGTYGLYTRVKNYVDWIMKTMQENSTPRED
Sequence (P09871 16-437 partner limits assumed): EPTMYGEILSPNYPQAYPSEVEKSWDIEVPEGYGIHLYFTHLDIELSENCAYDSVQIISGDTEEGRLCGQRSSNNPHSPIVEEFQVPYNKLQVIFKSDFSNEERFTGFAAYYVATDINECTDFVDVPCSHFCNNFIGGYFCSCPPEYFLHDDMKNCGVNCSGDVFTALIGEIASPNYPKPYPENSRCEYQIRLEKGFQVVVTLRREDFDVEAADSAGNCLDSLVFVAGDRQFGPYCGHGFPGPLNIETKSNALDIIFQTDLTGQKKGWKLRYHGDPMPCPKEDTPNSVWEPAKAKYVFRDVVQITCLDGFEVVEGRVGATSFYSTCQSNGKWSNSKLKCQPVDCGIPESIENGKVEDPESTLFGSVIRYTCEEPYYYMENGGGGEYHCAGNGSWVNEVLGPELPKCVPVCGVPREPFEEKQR
Test Description: biochemical
Settings: ATEE hydrolysis; read-out: Anti-C1 activity, C1s ID50
Measure Name: IC50

>>> measured_value("N=C(N)c1ccc2cc(OC(=O)COc3ccc(Cl)cc3Cl)ccc2c1")
"> 10 µM"
>>> measured_value("COc1ccccc1OCC(=O)Oc1ccc2cc(C(=N)N)ccc2c1")
"> 10 µM"
>>> measured_value("CC(=O)Nc1ccc(C(=O)Oc2ccc3cc(C(=N)N)ccc3c2)cc1")
"0.4 µM"
>>> measured_value("CCCCOc1ccc(C(=O)Oc2ccc3cc(C(=N)N)ccc3c2)cc1")
"0.4 µM"
>>> measured_value("N#Cc1ccc(C(=O)Oc2ccc3cc(C(=N)N)ccc3c2)cc1")
"8 µM"
>>> measured_value("CC(=O)Oc1ccccc1C(=O)Oc1ccc2cc(C(=N)N)ccc2c1")
"3 µM"
>>> measured_value("N=C(N)c1ccc2cc(OC(=O)C=Cc3ccccc3)ccc2c1 [Compound 57, 6-amidino-2-naphthyl cinnamate]")
"3 µM"
>>> measured_value("N=C(N)c1ccc2cc(OC(=O)C=Cc3ccc(N)cc3)ccc2c1 [Compound 63, 6-amidino-2-naphthyl 4-aminocinnamate]")
"0.4 µM"

====

Study System: C1r (Homo sapiens, UniProt P00736)
Quick list: IC50 per entry.
Measure Name: IC50 (nM)

>>> measured_value("CC(=O)Oc1ccccc1C(=O)Oc1ccc2cc(C(=N)N)ccc2c1")
3000
>>> measured_value("N=C(N)c1ccc2cc(OC(=O)c3ccc(O)cc3)ccc2c1 [Compound 11, 6-amidino-2-naphthyl 4-hydroxybenzoate]")
100
>>> measured_value("CSc1ccc(C(=O)Oc2ccc3cc(C(=N)N)ccc3c2)cc1")
500
>>> measured_value("COc1ccc(C(=O)Oc2ccc3cc(C(=N)N)ccc3c2)cc1")
100

====

Known Inhibition of complement mediated hemolysis (%) of a selection of compounds
System: complement mediated hemolysis
Test Description: Inhibition of complement mediated hemolysis
Format: cell-based
Settings: 1 × 10^-4
Measure Name: Inhibition of complement mediated hemolysis (%)

>>> measured_value("CC(=O)Oc1ccccc1C(=O)Oc1ccc2cc(C(=N)N)ccc2c1 [Compound 12]")
"87%"
>>> measured_value("N=C(N)c1ccc2cc(OC(=O)CCCc3ccccc3)ccc2c1 [Compound 54, 6-amidino-2-naphthyl 4-phenylbutyrate]")
"12%"
>>> measured_value("CC(=O)N[C@@H](CC(C)C)C(=O)N[C@@H](CC(C)C)C(=O)N[C@H](C=O)CCCNC(=N)N [Leupeptin, reference compound]")
"97%"
>>> measured_value("N=C(N)c1ccc2cc(OC(=O)c3ccc(Cl)cc3)ccc2c1 [Compound 16]")
"99%"

====

pIC50: −log10 of the molar value.
As a worked illustration, we turn to pIC50 data collected for Thrombin (Homo sapiens, UniProt P00734).
Measure Name: pIC50

>>> measured_value("CSc1ccc(C(=O)Oc2ccc3cc(C(=N)N)ccc3c2)cc1")
5.40
>>> measured_value("N=C(N)Nc1ccc(C(=O)Oc2ccc3cc(C(=N)N)ccc3c2)cc1 [Compound 27, 6-amidino-2-naphthyl 4-guanidinobenzoate]")
5.52
>>> measured_value("N=C(N)c1ccc2cc(OC(=O)c3ccc([N+](=O)[O-])cc3)ccc2c1 [Compound 18, 6-amidino-2-naphthyl 4-nitrobenzoate]")
5.70
>>> measured_value("Cc1cccc(C(=O)Oc2ccc3cc(C(=N)N)ccc3c2)c1 [Compound 3, 6-amidino-2-naphthyl 3-methylbenzoate]")
5.40
>>> measured_value("COc1ccc(C(=O)Oc2ccc3cc(C(=N)N)ccc3c2)cc1")
5.52
>>> measured_value("N=C(N)c1ccc2cc(OC(=O)c3ccccc3)ccc2c1 [Compound 1, 6-amidino-2-naphthyl benzoate]")
5.30
>>> measured_value("N=C(N)c1ccc2cc(OC(=O)c3ccc(C=O)cc3)ccc2c1")
6.52
>>> measured_value("N=C(N)c1ccc2cc(OC(=O)C=Cc3ccccc3)ccc2c1 [Compound 57, 6-amidino-2-naphthyl cinnamate]")
5.00
>>> measured_value("Cc1ccc(C(=O)Oc2ccc3cc(C(=N)N)ccc3c2)cc1")
4.70
>>> measured_value("CC(=O)c1ccc(C(=O)Oc2ccc3cc(C(=N)N)ccc3c2)cc1")
5.40
>>> measured_value("N#Cc1ccc(C(=O)Oc2ccc3cc(C(=N)N)ccc3c2)cc1")
5.70
